Where do these numbers come from? They come from a melting point compilation (Tetko et al.; mined from patent text by program, amines drawn as free bases though some values may be those of a salt).

quantityMeasured: melting point

{"compound": "CCCCCCCCCCCCCCCC1CCCC(c2ccc(O)cc2)(c2ccc(O)cc2)C1 (stereo not given)", "quantityMeasured": "melting point", "observedMeasurement": "104 °C"}
{"compound": "COc1ccc(CNc2cc(N3CCCC3CO)ccc2C(=O)NCc2ncccn2)cc1Cl (stereo not given)", "quantityMeasured": "melting point", "observedMeasurement": "102 to 107 °C"}
{"compound": "CC(C)(C)NCC(O)COc1ccc(-c2noc3sccc23)cc1 (stereo not given)", "quantityMeasured": "melting point", "observedMeasurement": "118 °C"}
{"compound": "N#Cc1c(N2CCCCC2)cc(-c2ccc(F)cc2)c2c1-c1ccccc1C2=O", "quantityMeasured": "melting point", "observedMeasurement": "180 to 182 °C"}
{"compound": "CCCCN1C(=O)C2CC(c3ccc(N)cc3)(C2)C1=O", "quantityMeasured": "melting point", "observedMeasurement": "178 to 179 °C"}
{"compound": "CCCCC1Cc2c(c3cccnc3n(-c3ccc(F)cc3)c2=O)O1 (stereo not given)", "quantityMeasured": "melting point", "observedMeasurement": "258 to 260 °C"}
{"compound": "Cc1cc2c(s1)CNCC2O (stereo not given)", "quantityMeasured": "melting point", "observedMeasurement": "120 °C"}
{"compound": "CCOC(=O)C(=CNc1ncnc2ccc(NC(=O)CC(C)(C)C)cc12)C(=O)OCC", "quantityMeasured": "melting point", "observedMeasurement": "133 to 135 °C"}
{"compound": "CC(=O)OC1Oc2ccc(C#N)cc2C1(C)C (stereo not given)", "quantityMeasured": "melting point", "observedMeasurement": "138 to 140 °C"}
{"compound": "COC(=O)c1cc2ccoc2s1", "quantityMeasured": "melting point", "observedMeasurement": "86 to 88 °C"}

====

{"molecule": "Cc1c(C)c2c(c(C)c1NC(=O)CCC(F)(F)F)C(c1ccc(C(C)C)cc1)CO2 (stereo not given)", "melting point": "206 to 207 °C"}
{"molecule": "CSC(C)=NOC(=O)NCSN(C(C)(C)C)P1(=O)OCC(C)(C)CO1", "melting point": "134 °C"}
{"molecule": "CC1(C)OCCN1C(=O)C=Cc1ccc(F)cc1", "melting point": "106 to 108 °C"}
{"molecule": "CC1=C(CNC(=O)NCc2ccccc2)c2cc(F)ccc2/C1=C\\c1ccc(S(C)(=O)=O)cc1", "melting point": "204 °C"}
{"molecule": "C/C(=C\\Cn1oc(=O)[nH]c1=O)c1cccc(OCc2nc(-c3ccc(OCC(F)(F)F)cc3)oc2C)c1", "melting point": "145 to 146 °C"}
{"molecule": "COc1ccccc1-c1nc2cc(NC(=O)c3c(C(=O)O)cnn3C)ccn2n1", "melting point": "283 °C"}
{"molecule": "COCC=C(NC(C)=O)C(=O)OC", "melting point": "61 to 63 °C"}
{"molecule": "Cn1c(=O)ccc2cc(COc3cc(F)cc(C4(SC(C)(C)C)CCOCC4)c3)ccc21", "melting point": "54 to 56 °C"}
{"molecule": "O=C(Nc1ccccc1C(=NC1CCN(Cc2ccccc2)CC1)c1ccccc1)C(Cl)(Cl)Cl", "melting point": "151 to 152 °C"}
{"molecule": "O=C(N=C1SCCN1Cc1ccc(Cl)nc1)c1ccccc1", "melting point": "133 °C"}
{"molecule": "c1ccc(C(CCCc2c[nH]cn2)c2ccccc2)cc1", "melting point": "204 to 206 °C"}
{"molecule": "CCOC(C)O[C@H]1C(=O)N(C(=O)OC(C)(C)C)[C@H]1C=Cc1ccccc1 (stereo not given in full)", "melting point": "69 to 73 °C"}
{"molecule": "CC(C)(C)OC(=O)N[C@@H](Cc1ccc(C(=N)NC(=O)OCc2ccccc2)cc1)C(=O)O", "melting point": "112 to 115 °C"}
{"molecule": "CNc1cc(-n2ccc3ccccc32)cc(C)n1", "melting point": "156 to 158 °C"}
{"molecule": "COc1ccc(C=CC(=O)c2ccc(O)cc2)cc1OC", "melting point": "193 to 198 °C"}
{"molecule": "O=S1(=O)N=CN(CCF)c2ccc(Cl)cc21", "melting point": "211 to 218 °C"}
{"molecule": "O=C(NCCN1CCCC1)N1CCN(c2ccccc2)CC1", "melting point": "81.5 to 84 °C"}
{"molecule": "COc1cc(C2C3=C(COC3=O)N(Cc3ccc([N+](=O)[O-])cc3)c3cc4c(cc32)OCO4)cc(OC)c1OC (stereo not given)", "melting point": "240 °C"}
{"molecule": "CNC(c1ccnc(F)c1)C(O)c1cccc(C(F)(F)F)c1 (stereo not given)", "melting point": "99 to 102 °C"}
{"molecule": "Cc1noc(NS(=O)(=O)C23CSc4cccc(c42)OCO3)c1C (stereo not given)", "melting point": "135 to 137 °C"}
